# Test system: TE10
# measurement_description: relative cell viability vs DMSO, compound alone (fraction); higher = less cytotoxic
# cond: 2 µM; 48 h
Counter-ions that a name gives are not always drawn. Over roughly 2,000 compounds, “relative cell viability vs DMSO, compound alone” has its median near 1.1; the lowest 2% begin near 0.29. The list comes from a sample in which the lowest values are over-represented; it also holds close analogues and randomly drawn compounds.

compound	relative cell viability
CO[C@H]1/C=C/O[C@@]2(C)Oc3c(C)c(O)c4c(O)c(c(/C=N/N5CCN(C)CC5)c(O)c4c3C2=O)NC(=O)/C(C)=C\C=C\[C@H](C)[C@H](O)[C@@H](C)[C@@H](O)[C@@H](C)[C@H](OC(C)=O)[C@@H]1C [Rifampin]	1.05
CCn1c(N)c(C(=O)NC)c(=O)c2ccc(C#CC(C)(O)COC)nc21 (stereo unspecified)	0.979
Cc1c(C(N)=O)cc([N+](=O)[O-])cc1[N+](=O)[O-] [Dinitolmide]	1.1
Cc1ccc(C(=O)Nc2cccc(C(F)(F)F)c2)cc1Nc1nc(-c2cccnc2)nc2c1cnn2C	1.13
Cc1c(F)cc(C(=O)NC2CC2)cc1-c1ccc(C(=O)NCC(C)(C)C)cn1	0.959
CC(C)CCNC(=O)[C@H](CC(C)C)NC(=O)[C@H]1O[C@@H]1C(=O)O [Loxistatin Acid (E-64C)]	1.1
NC(=O)C1CCCc2c1[nH]c1ccc(Cl)cc21 (stereo unspecified) [EX 527 (Selisistat)]	0.983
CCc1nc(-c2cccc(C)c2)c(-c2ccnc(NC(=O)c3ccccc3)c2)s1	1.08
CN(C)C(=O)c1cc2cnc(Nc3ccc(N4CCNCC4)cn3)nc2n1C1CCCC1	1.15
CCc1cc(/C(C)=N/OCc2ccc(C3CCCCC3)c(C(F)(F)F)c2)ccc1CN1CC(C(=O)O)C1 [BAF312 (Siponimod)]	1.1
Nc1nc(CC(=O)Nc2ccc(CCNC[C@H](O)c3ccccc3)cc2)cs1 [Mirabegron]	0.954
CC(=O)N[C@@H](CC(C)C)C(=O)N[C@@H](CC(C)C)C(=O)N[C@H](C=O)CCCNC(=N)N [Leupeptin Hemisulfate]	1.09
CC1=NN(c2ccc(C(=O)O)cc2)C(=O)C1=Cc1ccc(-c2cc(C)c(C)cc2[N+](=O)[O-])o1	1.04
CC#CC(=O)Nc1ccc2ncnc(Nc3cccc(Br)c3)c2c1	0.773
CC1(C)S[C@@H]2[C@H](NC(=O)[C@H](NC(=O)N3CCNC3=O)c3ccccc3)C(=O)N2[C@H]1C(=O)O [Azlocillin sodium salt]	1.09
CCOC(=O)CCNc1cc(N2CCc3ccccc3CC2)nc(-c2ccccn2)n1	0.957

---

# Test system: TE10
# measurement_description: relative cell viability vs DMSO, compound alone (fraction); higher = less cytotoxic
# cond: 2 µM; 48 h
In all, about 2,000 compounds were measured (“relative cell viability vs DMSO, compound alone”: median about 1.1, lowest 2% from about 0.29 on). Only a selection was taken, and the lowest values are over-represented in it overall.
result_type: relative cell viability

>>> print(df.to_string())
                                   compound  target_under_test  reported_value
0  O=C(O)CCCC[C@@H]1SC[C@@H]2NC(=O)N[C@@H]21               TE10           0.999
1  COc1ccc(COc2cc3oc(=O)c4cc(C(C)O)ccc4c3cc2OC)cc1 (centres undefined)               TE10            1.14
2  Cc1cc2c(cc1CC(=O)c1sccc1S(=O)(=O)Nc1onc(C)c1Cl)OCO2 [Sitaxentan sodium]               TE10            1.06
3        Oc1ccc(Nc2nc(-c3ccc(Cl)cc3)cs2)cc1               TE10            1.11
4                       COc1cc(C(C)=O)ccc1O               TE10            1.07
5  CNc1nc(-c2ccc3c(N)n[nH]c3c2)cc(N2C[C@@H](C(=O)NC3CCCCC3)CC[C@H]2C)n1               TE10            1.05
6  CC(C)/N=c1\cc2n(-c3ccc(Cl)cc3)c3ccccc3nc-2cc1Nc1ccc(Cl)cc1               TE10           0.929
7  COc1ccc(-c2ccc3c(N4CCOC[C@@H]4C)nc(N4CCOC[C@@H]4C)nc3n2)cc1CO               TE10           0.494
8  CCCC[C@@H](C=O)NC(=O)[C@H](CC(C)C)NC(=O)OCc1ccccc1               TE10               1

---

# Tested on: TE10
# measurement_description: relative cell viability vs DMSO, compound alone (fraction); higher = less cytotoxic
# cond: 2 µM; 48 h
The full ranking holds about 2,000 compounds; the median of “relative cell viability vs DMSO, compound alone” is about 1.1, and the lowest 2% start at about 0.29. Only a selection was taken, and the lowest values are over-represented in it overall.
Binary label based on relative cell viability with cut-off 1: below gives T, not below gives F.

>>> df
                                   compound  cat
0         OCc1ccc(-c2ccc(-c3ccc(CO)s3)o2)s1    T
1  Cc1cc(N2CCOCC2)ccc1Nc1nc(NC2CCCCC2)c2[nH]cnc2n1    F
2  COC(=O)c1ccc2c(c1)nc(NC(=O)c1ccccc1)n2CCCc1ccccc1    T
3  CCCCCCCCCCCCCCCC(=O)OCC(O)C1OC(=O)C(O)=C1O [L-Ascorbyl 6-palmitate]    F
4  C=C[C@]1(C)C[C@@H](OC(=O)CS[C@@H]2C[C@H]3CC[C@@H](C2)N3C)[C@]2(C)[C@H](C)CC[C@]3(CCC(=O)[C@H]32)[C@@H](C)[C@@H]1O    F
5  NC1CC1c1ccc(-c2cccc(O)c2)cc1 (stereo not drawn)    F
6  CCN(CC)CCNC(=O)c1c(C)[nH]c(/C=C2\C(=O)Nc3ccc(F)cc32)c1C [Sunitinib Malate]    F
7  COCCCOc1cc(C[C@@H](C[C@H](N)[C@@H](O)C[C@H](C(=O)NCC(C)(C)C(N)=O)C(C)C)C(C)C)ccc1OC [Aliskiren Hemifumarate]    F

---

# System: TE10
# measurement_description: relative cell viability vs DMSO, compound alone (fraction); TE10 is an esophageal squamous carcinoma line; higher = less cytotoxic
# cond: 2 µM; 48 h
Structures can show the parent of a compound that is named as a salt. Whole data set: some 2,000 compounds, median “relative cell viability vs DMSO, compound alone” near 1.1, cut for the lowest 2% near 0.29. Many of the other results were omitted from the sample, so the lowest values are more common in it than they were.
Entries annotated with measured relative cell viability
result_type: relative cell viability

compound	reported_value
NC(=O)c1cccc(-c2cccc(OC(=O)NC3CCCCC3)c2)c1	1.17
CCOc1ccc2nc3cc(N)ccc3c(N)c2c1 [Ethacridine lactate monohydrate]	1.03
Cc1cccc(CC(=O)N2CCc3c2ccc(-c2cn(C)c4ncnc(N)c24)c3F)n1	1.01
COCCOC(=O)C1=C(C)NC(C)=C(C(=O)OC/C=C/c2ccccc2)C1c1cccc([N+](=O)[O-])c1 (stereo unspecified)	1.15
COc1nc(N)nc2c1ncn2[C@@H]1O[C@H](CO)[C@@H](O)[C@@H]1O	1.11
COc1cccc2cc(-c3nc([C@H]4CC[C@H](C(=O)O)CC4)n4ncnc(N)c34)[nH]c12	0.667
COc1ccc(C[C@H](N)C(=O)N[C@H]2[C@@H](O)[C@H](n3cnc4c(N(C)C)ncnc43)O[C@@H]2CO)cc1 [Puromycin 2HCl]	0.133
CC(=O)Oc1cc2c(s1)CCN(C(C(=O)C1CC1)c1ccccc1F)C2 (stereo unspecified)	1.14
CC1=CC(=O)c2ccccc2C1=O	0.981
CN1CC[C@H](c2c(O)cc(O)c3c(=O)cc(-c4ccccc4Cl)oc23)[C@H](O)C1 [Flavopiridol HCl]	0.293
NCCCC[C@@H]1NC(=O)[C@@H](Cc2ccccc2)NC(=O)[C@H](CC(=O)O)NC(=O)CNC(=O)[C@H](CCCN=C(N)N)NC1=O [Cyclo (-RGDfK)]	1.1
CC(C)(C)C(=O)Nc1ccc2c(c1)C(=O)C(=O)c1ccccc1-2	0.0653
C[C@H]1O[C@@H](O[C@H]2[C@@H](O)C[C@H](O[C@H]3[C@@H](O)C[C@H](O[C@H]4CC[C@@]5(C)[C@H](CC[C@@H]6[C@@H]5C[C@@H](O)[C@]5(C)[C@@H](C7=CC(=O)OC7)CC[C@]65O)C4)O[C@@H]3C)O[C@@H]2C)C[C@H](O)[C@@H]1O	0.603
CNC(=O)CN1CCC(Oc2cc3c(Nc4cccc(Cl)c4F)ncnc3cc2OC)CC1 [AZD8931 (Sapitinib)]	1.21
CC(=O)Nc1ccccc1 [Acetanilide]	0.976
CC1(C)O[C@@H]2[C@@H](CO[C@@]3(COS(N)(=O)=O)OC(C)(C)O[C@@H]23)O1 [Topiramate]	1.29
